- System: TK-10 renal
- assay.protocol: NCI tumour cell line growth inhibition, 48 h
observation.type: GI50

Prompt: Entry under review: COc1cc2c(cc1OC)C(=O)/C(=C/c1cccc(OCC(=O)c3ccccc3)c1)C2 . Reported GI50?
Response: 57.8 µM

Prompt: Bench note: what GI50 did COc1ccc(Cl)cc1Nc1nc(C(F)(F)F)ccc1C(=O)N/N=C/c1c(Cl)cccc1Cl show?
Response: 6.32 µM

Prompt: For the compound CC(C)C[C@H](NC(=O)[C@H](Cc1cccc2ccccc12)NC(=O)N1CCOCC1)B(O)O , what GI50 is on record?
Response: 0.00281 µM

---

- Tested on: COLO 205 colon
- assay.protocol: NCI tumour cell line growth inhibition, 48 h
Non-standard residues stand in square brackets, D forms with d. Residues, ends and D or L forms follow the SMILES beside them. *: point of attachment. ONb = O=[N+]([O-])c1ccc(CO*)cc1; AllylGly = C=CC[CH](N)C(=O)O; Boc = CC(C)(C)OC(=O)*
observation.type: TGI

Prompt: Look up TGI: Cc1ccc2[nH]cc(-c3nc(-c4c[nH]c5ncccc45)cs3)c2c1
Response: > 100 µM

Prompt: If you can, please state the reported TGI value of Cc1ccc(S(=O)(=O)N/C(=C\C=C\c2ccccc2)C(=O)C(C)(C)C)cc1 .
Response: > 100 µM

Prompt: Given the molecule O=C(Nc1ccccc1F)c1c(O)nc2sccn2c1=O , what is its reported TGI?
Response: > 10 µM

Prompt: Return reported TGI; argument: Cc1ccc(N=Nc2c(C)nn(C(=O)CC(=O)Nc3ccccc3)c2C)cc1C
Response: > 100 µM

Prompt: Name the reported TGI value associated with the molecule CN(C)c1ccc(/C=N/Nc2nc3ccccc3c(=O)n2-c2ccccc2)cc1
Response: > 100 µM

Prompt: Please look up its TGI: Cc1c(-c2c(C)c3ccccc3n2S(=O)(=O)c2ccccc2)n(S(=O)(=O)c2ccccc2)c2ccccc12
Response: > 100 µM

Prompt: Can you look up the measured TGI of Oc1ccc(Cl)cc1C1=N/C(=N\CN2CCN(C/N=C3/N=C(c4cc(Cl)ccc4O)CC(c4ccccc4)N3)CC2)NC(c2ccccc2)C1 (stereo unspecified) for me?
Response: > 100 µM

Prompt: Field request: TGI | item: COC(=O)/C=C/c1ccccc1N=[S@](C)(=O)c1ccc(C)cc1
Response: 26.7 µM

Prompt: Would you mind telling me what TGI value was observed for O=C(O)CSc1n[nH]c(-c2ccc(O)cc2)n1 ?
Response: > 100 µM

Prompt: State the recorded TGI for this entry: ClCc1cccc(Cn2cnc3c(Cl)ncnc32)c1
Response: 10.5 µM

Prompt: Quick one: TGI for C=CCC(NC(=O)OC(C)(C)C)C(=O)NC(CCC(=O)OCc1ccc([N+](=O)[O-])cc1)C(N)=O (stereo unspecified) (Boc-[AllylGly]-Glu(ONb)-NH2; configuration not given here) ?
Response: 53.1 µg/mL

Prompt: Suppose we examine the molecule CC(=O)C(C(C)=O)=C1CCCC(O)O1 (stereo unspecified) ; what TGI value has been reported?
Response: > 100 µM

Prompt: Which measured TGI value corresponds to CCN(CC)Cc1nc2sc3c(c2c(=O)n1-c1ccccc1)CCCC3 ?
Response: 43.6 µM

Prompt: Returns the measured TGI for the input molecule. Input: CC(=O)O/C=C\OC1CCCC1(c1ccccc1)c1ccccc1 (stereo unspecified)
Response: 13.8 µM

Prompt: Please look up its TGI: O=C(CCCCCCSc1nc(-c2ccccc2)cc(-c2ccc(Cl)cc2)n1)NO
Response: 5.76 µM

Prompt: I am curious: what TGI value has been reported for COc1cc(C2CC(c3ccc(C)cc3)=NN2C=O)ccc1Oc1ccnc2cc(Cl)ccc12 (stereo unspecified) ?
Response: > 50 µM

Prompt: I have this molecule here, CCOC/N=C(/N)NC#N , and I need its recorded TGI.
Response: > 100 µM

Prompt: I am curious: what TGI value has been reported for CCCC/C=C1\CCC(CN2CCCCC2)C1=O (stereo unspecified) ?
Response: 29 µM

Prompt: GET /values?readout=TGI&item= COc1ccc2[nH]c3c(c2c1)CCN(C)CC3
Response: > 100 µM

Prompt: Fill in the blank: the reported TGI of CC1=C(C(=O)Nc2c(C)cccc2C)C(c2ccc3c(c2)OCO3)C(C(=O)Nc2c(C)cccc2C)=C(C)N1 is ____.
Response: 47.1 µM

Prompt: Given COc1cc(/C(C#N)=C/c2ccc3c(c2OC)OCO3)cc2c1OCO2 , state its recorded TGI.
Response: 3.14 µM
